experiment: Antiproliferative activity against tamoxifen resistant human MCF7:5C cells assessed as inhibition of cell growth at 10 nM after 9 days by MTS assay; type: functional; details: 216 h
Experimental endpoint: inhibition at 0.01 µM (%)
Give bare numbers, in %.

Recorded results for 5 molecules are shown here.
Molecule: O=C(c1sc2cc(O)ccc2c1-c1ccc(F)cc1)C1CCCCC1
Measure unit: %
inhibition at 0.01 µM: 134

Molecule: O=C(c1ccc(C(F)(F)F)cc1)c1sc2cc(O)ccc2c1-c1ccc(F)cc1
Measure unit: %
inhibition at 0.01 µM: 15.4

Molecule: O=C(c1ccc(C(F)(F)F)cc1)c1c(-c2ccc(F)cc2)sc2cc(O)ccc12
Measure unit: %
inhibition at 0.01 µM: 69.7

Molecule: O=C(c1ccc(O)cc1)c1sc2cc(O)ccc2c1-c1ccc(F)cc1
Measure unit: %
inhibition at 0.01 µM: 99.8

Molecule: Cc1ccc(C(=O)c2sc3cc(O)ccc3c2-c2ccc(F)cc2)cc1
Measure unit: %
inhibition at 0.01 µM: 7.4

Respectfully, I request inhibition at 0.01 µM for each entry included below.
1. Oc1ccc(Oc2sc3cc(O)ccc3c2-c2ccc(F)cc2)cc1 [TTC-352]
2. O=C(c1sc2cc(O)ccc2c1-c1ccc(F)cc1)C1CC1
3. O=C(c1ccc(F)cc1)c1sc2cc(O)ccc2c1-c1ccc(F)cc1
4. Cc1ccc(C(=O)c2c(-c3ccc(O)cc3)sc3cc(O)ccc23)cc1
5. CN(C)c1ccc(C(=O)c2sc3cc(O)ccc3c2-c2ccc(F)cc2)cc1

[out]
[104, 79.6, 32.4, 60.2, 15.1]

Given item `C#Cc1ccc(C(=O)c2sc3cc(O)ccc3c2-c2ccc(F)cc2)cc1` , the value recorded as its inhibition at 0.01 µM is 79.9
